- test-system: T1, human SIRPγ isoform 1 (human, UniProt Q9P1W8 29-147)
- T1 construct: also called Gamma; Human SIRPg
- T1 sequence (Q9P1W8 29-147 limits assumed): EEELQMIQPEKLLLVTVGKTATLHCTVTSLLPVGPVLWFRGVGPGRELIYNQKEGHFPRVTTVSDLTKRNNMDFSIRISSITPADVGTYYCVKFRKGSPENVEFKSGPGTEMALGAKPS
- measurement-notes: SPR, antibody on GLC chip
measurement-name: pKd
Numbers only, as −log10 of the molar value.

Record excerpt, results attached:
antibody 136 variant, light chain Mut_S12T / heavy chain Mut (antibody, V domains shown) VH: EVQLVESGGGVVQPGRSLRLSCAASGFTFSSYDVNWVRQAPGKGLEWVSLISGSGEIIYYADSVKGRFTISRDNSKNTLYLQMNSLRAEDTAVYYCAKENNRYRFFDDWGQGTLVTVSS VL: EIVLTQSPGTLTLSPGERATLSCRASQSVYTYLAWYQQKPGQAPRLLIYGASSRATGIPDRFSGSGSGTEFTLTISSLQSEDFAVYYCQQYYDRPPLTFGGGTKVEIK ... 7.18
antibody 136 variant, light chain Mut_I2T / heavy chain Mut (antibody, V domains shown) VH: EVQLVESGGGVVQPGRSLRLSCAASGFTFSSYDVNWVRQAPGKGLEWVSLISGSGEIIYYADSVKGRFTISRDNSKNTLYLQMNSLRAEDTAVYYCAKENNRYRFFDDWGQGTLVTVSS VL: ETVLTQSPGTLSLSPGERATLSCRASQSVYTYLAWYQQKPGQAPRLLIYGASSRATGIPDRFSGSGSGTEFTLTISSLQSEDFAVYYCQQYYDRPPLTFGGGTKVEIK ... 7.40
antibody 136 variant, light chain Mut_I2T / heavy chain Mut_V34M (antibody, V domains shown) VH: EVQLVESGGGVVQPGRSLRLSCAASGFTFSSYDMNWVRQAPGKGLEWVSLISGSGEIIYYADSVKGRFTISRDNSKNTLYLQMNSLRAEDTAVYYCAKENNRYRFFDDWGQGTLVTVSS VL: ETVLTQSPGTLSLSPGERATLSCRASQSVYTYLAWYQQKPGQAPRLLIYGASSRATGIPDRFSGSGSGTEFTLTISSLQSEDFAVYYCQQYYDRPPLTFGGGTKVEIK ... 7.47

Lab note: each binder below needs its pKd filled in.
1. antibody 119 variant, light chain Mut / heavy chain Mut_V34M (antibody, V domains shown) VH: EVQLLESGGGVVQPGGSLRLSCAASGFSFSNFAMTWVRQAPGKGLEWVSTIGSGDTYYADSVKGRFTISRDNSKNTLYLQMNSLRAEDTAVYYCAKDSTVSWSGDFFDYWGQGTLVTVSS VL: EIVLTQSPATLSVSPGERATLSCRASQNVKNDLAWYQQKPGQAPRLLIYAARIRETGIPARFSGSGSGTEFTLTISSLQSEDFAVYYCQQYYDWPPFTFGGGTKVEIK
2. antibody 135 variant, light chain wt / heavy chain Mut (antibody, V domains shown) VH: EVQLVESGGGVVQPGGSLRLSCAASGFSFSIYAVSWVRQAPGKGLEWVSTIGADDTYYADSVKGRFTISRDNSKNTLYLQMNSLRAEDTAVYYCAKDSTVGWSGDFFDYWGQGTLVTVSS VL: EIVLTQSPATLSVSPGERVTFSCRASQNVRSDIAWYQQKPGQAPRLLIYAASSRDTGIPDRFSGSGSGTDFTLTISSLQSEDFGVYYCQQYYDWPPFTFGGGTKVEIK
3. antibody 135 variant, light chain wt / heavy chain Mut_V34M (antibody, V domains shown) VH: EVQLVESGGGVVQPGGSLRLSCAASGFSFSIYAMSWVRQAPGKGLEWVSTIGADDTYYADSVKGRFTISRDNSKNTLYLQMNSLRAEDTAVYYCAKDSTVGWSGDFFDYWGQGTLVTVSS VL: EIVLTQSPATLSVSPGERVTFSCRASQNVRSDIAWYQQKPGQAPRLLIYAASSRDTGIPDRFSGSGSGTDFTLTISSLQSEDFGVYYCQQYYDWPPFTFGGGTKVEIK
4. antibody 136 variant, light chain Mut / heavy chain Mut (antibody, V domains shown) VH: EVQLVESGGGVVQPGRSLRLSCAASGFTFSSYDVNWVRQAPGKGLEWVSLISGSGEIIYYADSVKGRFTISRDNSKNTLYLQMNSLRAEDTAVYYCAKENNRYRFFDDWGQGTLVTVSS VL: EIVLTQSPGTLSLSPGERATLSCRASQSVYTYLAWYQQKPGQAPRLLIYGASSRATGIPDRFSGSGSGTEFTLTISSLQSEDFAVYYCQQYYDRPPLTFGGGTKVEIK

Output line:
9.58
9.11
9.27
8.77
